Catalogue of Fluorescence Intensity Geomean (normalized to background) readings, one per entry.
Molecular target: T1, human CD1c expressed on HEK-293 cells (human, UniProt P29017 18-333; P61769 21-119)
T1 construct: also called HEK - CD1c
Assay: flow cytometry, HEK-293 cells, 31.6 µg/ml antibody
MEASURED ATTRIBUTE: Fluorescence Intensity Geomean (normalized to background) (fold over background)

{"BINDER": "111 (VR12113) (antibody, V domains shown, also called OX111) VH: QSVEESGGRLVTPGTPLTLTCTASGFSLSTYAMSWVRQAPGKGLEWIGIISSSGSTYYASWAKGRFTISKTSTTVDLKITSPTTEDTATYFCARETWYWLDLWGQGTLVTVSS VL: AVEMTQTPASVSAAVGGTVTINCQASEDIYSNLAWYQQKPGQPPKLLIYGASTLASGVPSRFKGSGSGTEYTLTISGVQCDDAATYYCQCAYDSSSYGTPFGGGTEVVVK", "QUANTITY UNIT": "fold over background", "TEST RESULT": 1}
{"BINDER": "110 (VR12112) (antibody, V domains shown, also called OX110; antibody 110) VH: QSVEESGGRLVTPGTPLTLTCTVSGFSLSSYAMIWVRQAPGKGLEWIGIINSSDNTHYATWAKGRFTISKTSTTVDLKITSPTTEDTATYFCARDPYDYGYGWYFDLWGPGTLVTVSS VL: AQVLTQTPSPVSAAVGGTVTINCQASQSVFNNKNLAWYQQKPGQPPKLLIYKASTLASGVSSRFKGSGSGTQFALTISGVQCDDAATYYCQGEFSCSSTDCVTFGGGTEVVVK", "QUANTITY UNIT": "fold over background", "TEST RESULT": 1}
{"BINDER": "116 (VR12117) (antibody, V domains shown, also called OX116) VH: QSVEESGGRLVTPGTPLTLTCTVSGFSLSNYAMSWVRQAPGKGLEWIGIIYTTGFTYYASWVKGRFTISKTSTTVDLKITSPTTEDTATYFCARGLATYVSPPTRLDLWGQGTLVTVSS VL: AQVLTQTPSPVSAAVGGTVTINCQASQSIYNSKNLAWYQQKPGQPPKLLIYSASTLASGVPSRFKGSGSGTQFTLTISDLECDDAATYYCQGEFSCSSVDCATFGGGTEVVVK", "QUANTITY UNIT": "fold over background", "TEST RESULT": 1}
{"BINDER": "77A (VR11851) (antibody, V domains shown, also called OX77a; antibody 77a) VH: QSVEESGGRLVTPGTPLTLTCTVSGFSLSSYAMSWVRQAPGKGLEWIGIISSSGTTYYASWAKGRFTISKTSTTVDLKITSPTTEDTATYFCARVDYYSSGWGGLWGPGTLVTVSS VL: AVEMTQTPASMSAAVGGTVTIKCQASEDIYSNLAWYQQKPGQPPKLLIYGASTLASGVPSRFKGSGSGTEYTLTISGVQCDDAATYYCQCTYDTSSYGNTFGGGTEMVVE", "QUANTITY UNIT": "fold over background", "TEST RESULT": 0.9}
